Recorded values, source patent US20230002334A1.

Below, each entry is listed with its recorded EC50.
biological target: hTRPM8 (Homo sapiens, UniProt Q7Z2W7); construct: expressed in transfected cells; experiment: Assay on TRPM8 modulators: calcium imaging (Fluo-4, Flexstation) in HEK293 cell line stably expressing hTRPM8; format: cell-based; conditions: HEK293 cells stably expressing hTRPM8, calcium influx, sigmoidal dose-response fit; read-out: EC50
Sequence (Q7Z2W7 whole entry): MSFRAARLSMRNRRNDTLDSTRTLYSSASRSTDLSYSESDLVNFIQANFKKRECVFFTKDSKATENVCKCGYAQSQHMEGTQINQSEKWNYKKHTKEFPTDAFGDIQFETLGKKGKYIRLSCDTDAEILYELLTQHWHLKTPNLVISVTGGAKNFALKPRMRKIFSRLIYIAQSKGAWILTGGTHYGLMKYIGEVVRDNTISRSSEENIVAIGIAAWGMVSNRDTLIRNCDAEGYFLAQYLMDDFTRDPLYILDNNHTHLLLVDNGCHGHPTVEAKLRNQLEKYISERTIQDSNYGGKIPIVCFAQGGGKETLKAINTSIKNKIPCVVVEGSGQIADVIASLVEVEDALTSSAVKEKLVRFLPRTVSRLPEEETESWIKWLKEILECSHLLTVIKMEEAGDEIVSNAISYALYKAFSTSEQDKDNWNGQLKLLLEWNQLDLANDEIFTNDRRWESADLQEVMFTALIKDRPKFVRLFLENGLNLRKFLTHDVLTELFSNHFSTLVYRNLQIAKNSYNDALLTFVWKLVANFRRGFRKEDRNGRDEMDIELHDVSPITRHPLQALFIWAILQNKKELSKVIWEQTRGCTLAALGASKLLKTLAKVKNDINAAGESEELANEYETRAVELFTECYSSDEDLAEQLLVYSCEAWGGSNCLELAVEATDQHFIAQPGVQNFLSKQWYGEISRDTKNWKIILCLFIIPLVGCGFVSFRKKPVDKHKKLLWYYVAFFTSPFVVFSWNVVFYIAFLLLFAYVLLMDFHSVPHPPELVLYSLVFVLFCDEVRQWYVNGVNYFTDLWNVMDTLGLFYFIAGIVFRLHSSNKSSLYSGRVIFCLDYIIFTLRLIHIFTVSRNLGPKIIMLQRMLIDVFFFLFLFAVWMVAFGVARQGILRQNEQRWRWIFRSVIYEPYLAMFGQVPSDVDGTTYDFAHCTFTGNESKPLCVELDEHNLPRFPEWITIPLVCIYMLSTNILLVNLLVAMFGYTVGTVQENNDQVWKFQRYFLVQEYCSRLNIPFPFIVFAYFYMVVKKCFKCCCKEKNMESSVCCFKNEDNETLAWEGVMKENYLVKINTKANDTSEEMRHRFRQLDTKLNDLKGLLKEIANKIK
readout_kind: EC50

compound	readout_kind	result
Cc1ccc(C#N)cc1[C@H]1C[C@@H]2[C@@H]([C@@H](C)C1)N(C)OC2(C)C (racemic)	EC50	50 to 300 nM
CC1CC(C)(c2ccccc2C#N)CC2C1N(C)OC2(C)C (centres unmarked)	EC50	50 to 300 nM
CCCC[C@@H]1CC[C@@H]2[C@@H](C1)C(C)(C)ON2C (racemic)	EC50	300 to 1000 nM
C[C@H]1C[C@@H](c2ccccc2)C[C@@H]2[C@@H]1N(C)OC2(C)C (racemic)	EC50	50 to 300 nM
COc1cccc(C2(C)CC(C)C3C(C2)C(C)(C)ON3C)n1 (centres unmarked)	EC50	300 to 1000 nM
CSc1ccccc1[C@@]1(C)C[C@@H]2[C@@H]([C@@H](C)C1)N(C)OC2(C)C (racemic)	EC50	50 to 300 nM
COc1cccc([C@@]2(C)C[C@@H]3[C@@H]([C@@H](C)C2)N(C(C)C)OC3(C)C)n1 (racemic)	EC50	300 to 1000 nM
C[C@H]1C[C@@](C)(c2cc(Cl)cc(C#N)c2)C[C@@H]2[C@@H]1N(C)OC2(C)C (racemic)	EC50	< 50 nM
